This collection of values is drawn from patent US5198424A.

Target: GMP-140 (Homo sapiens)
Sequence (P16109 42-830): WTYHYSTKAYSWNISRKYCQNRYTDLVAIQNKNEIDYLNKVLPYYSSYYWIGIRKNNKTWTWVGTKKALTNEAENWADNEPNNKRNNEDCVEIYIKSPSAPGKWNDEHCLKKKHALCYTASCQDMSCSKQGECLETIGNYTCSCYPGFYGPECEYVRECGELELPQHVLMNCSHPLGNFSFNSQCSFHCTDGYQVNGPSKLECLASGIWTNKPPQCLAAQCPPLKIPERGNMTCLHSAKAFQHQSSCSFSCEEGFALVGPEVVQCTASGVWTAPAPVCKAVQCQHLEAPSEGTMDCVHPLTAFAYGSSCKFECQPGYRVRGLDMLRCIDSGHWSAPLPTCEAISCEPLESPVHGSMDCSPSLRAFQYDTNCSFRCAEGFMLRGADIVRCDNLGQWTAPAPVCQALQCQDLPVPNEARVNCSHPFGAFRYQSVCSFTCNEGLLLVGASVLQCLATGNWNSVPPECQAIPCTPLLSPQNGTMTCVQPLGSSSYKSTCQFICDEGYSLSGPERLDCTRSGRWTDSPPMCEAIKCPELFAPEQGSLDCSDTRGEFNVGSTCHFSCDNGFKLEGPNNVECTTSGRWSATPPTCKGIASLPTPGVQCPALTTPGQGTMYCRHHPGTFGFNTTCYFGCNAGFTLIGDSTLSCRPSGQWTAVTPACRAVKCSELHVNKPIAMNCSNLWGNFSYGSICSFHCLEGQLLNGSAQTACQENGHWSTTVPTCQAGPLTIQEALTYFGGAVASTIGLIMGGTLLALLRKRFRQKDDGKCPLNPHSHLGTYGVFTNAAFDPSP
Experiment: ELISA of binding of biotinylated monoclonal antibodies G1, G2, G3 to immobilized GMP-140 with soluble peptide
Design: from tissue; host or cells: outdated human platelet packs (platelet lysate)
Conditions: mAb G3 2.5 micrograms/ml; peptide 1.5 mM
Ends that are not written are not given here.
observed_property: % Binding of Biotinylated MAbs G3 (%)

AENWADNEPNNKRNNED [73-89]    94

1. CQNRYTDLVAIQ [19-30]
2. RKNNKTWTWVGTKKALTNE [54-72]
3. CQNRYTDLVAIQNKNE [19-34]
List the 3 entries from lowest % Binding of Biotinylated MAbs G3 to highest % Binding of Biotinylated MAbs G3 value. Put the labels in the order asked and list them.
3, 1, 2
(3: 24%, 1: 54%, 2: 104%)
